target: hERG (Homo sapiens (Human), UniProt Q12809); assay: hERG inhibition assay
Sequence (Q12809 whole entry): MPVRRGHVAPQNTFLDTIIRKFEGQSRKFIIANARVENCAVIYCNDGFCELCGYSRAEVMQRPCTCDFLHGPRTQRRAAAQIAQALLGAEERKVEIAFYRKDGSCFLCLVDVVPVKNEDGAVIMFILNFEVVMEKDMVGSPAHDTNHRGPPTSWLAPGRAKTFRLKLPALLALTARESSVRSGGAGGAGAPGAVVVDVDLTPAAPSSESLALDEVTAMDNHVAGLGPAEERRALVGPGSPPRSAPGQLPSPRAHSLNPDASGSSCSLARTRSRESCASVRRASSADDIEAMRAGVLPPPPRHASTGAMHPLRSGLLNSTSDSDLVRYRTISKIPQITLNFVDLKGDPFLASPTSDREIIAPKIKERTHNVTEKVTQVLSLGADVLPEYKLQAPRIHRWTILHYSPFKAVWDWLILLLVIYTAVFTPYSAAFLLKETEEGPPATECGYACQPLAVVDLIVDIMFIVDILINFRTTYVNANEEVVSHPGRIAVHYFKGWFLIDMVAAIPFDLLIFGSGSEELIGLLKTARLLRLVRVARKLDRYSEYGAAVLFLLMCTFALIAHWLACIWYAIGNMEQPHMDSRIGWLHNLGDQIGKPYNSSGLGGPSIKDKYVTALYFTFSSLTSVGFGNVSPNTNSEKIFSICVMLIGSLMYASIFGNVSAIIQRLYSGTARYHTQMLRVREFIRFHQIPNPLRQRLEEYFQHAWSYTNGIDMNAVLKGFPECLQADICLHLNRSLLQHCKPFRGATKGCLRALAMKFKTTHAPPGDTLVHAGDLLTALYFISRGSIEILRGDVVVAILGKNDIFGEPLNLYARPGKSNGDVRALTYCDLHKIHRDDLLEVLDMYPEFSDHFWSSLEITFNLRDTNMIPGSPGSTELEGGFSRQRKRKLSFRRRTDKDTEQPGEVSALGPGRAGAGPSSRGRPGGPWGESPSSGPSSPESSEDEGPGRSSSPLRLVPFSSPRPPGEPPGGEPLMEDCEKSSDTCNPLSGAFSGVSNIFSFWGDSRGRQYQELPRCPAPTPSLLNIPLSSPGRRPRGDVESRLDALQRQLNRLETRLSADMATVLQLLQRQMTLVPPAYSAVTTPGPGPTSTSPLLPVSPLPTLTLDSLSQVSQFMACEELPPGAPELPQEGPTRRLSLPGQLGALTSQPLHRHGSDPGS
What IC50 was measured for each of the following?

Prompt line: State the recorded IC50 for this entry: CC1(C)CN(S(=O)(=O)c2cccc(Cl)c2)Cc2cc(N3CCN(C4CCCC4)CC3)ccc21 [Compound 33]
Response line: > 3 µM

Prompt line: Subsequent entry: CC1(C)CCN(C(=O)C2CCCC2)Cc2cc(N3CCC(N4CCOCC4)CC3)ccc21 [Compound 85]
Response line: > 3 µM

Prompt line: Subsequent entry: CCCN1CCN(c2ccc3c(c2)CN(C(=O)OCc2ccccc2)CC3(C)C)CC1 [Compound 2]
Response line: > 3 µM

Prompt line: Subsequent entry: CC(C)OC(=O)N1Cc2cc(N3CCN(C4CCCC4)CC3)ccc2C(C)(C)C1 [Compound 45]
Response line: > 3 µM

---

What activation at 1 µM was measured for each of the following?
Target: 5HT2A (Homo sapiens (Human))
Assay: 5HT2A agonist effect assay
Assay type: cell-based
Details: 1 μM, read-out: % stimulation relative to control (1 μM)
Protocol: Assays for determining the agonist effect on 5HT2A were performed according to the procedure described in Example 21, and the results are represented in Table F below. The compounds in Table F have no agonist effect on 5HT2A at 1 μM and 100 nM.
Unit % implied. Number only.

Prompt line: State the recorded activation at 1 µM for this entry: Cc1cc(-c2ccc3c(c2)CN(CCC(=O)N2CCC(C)CC2)CCC3(C)C)cc(C)n1
Response line: -1

Prompt line: Subsequent entry: CC1(C)CCN(C(=O)C2CCCC2)Cc2cc(N3CCN(C4CCCC4)CC3)ccc21
Response line: 0

Prompt line: Subsequent entry: CC(C)OC(=O)N1Cc2cc(N3CCN(C4CCCC4)CC3)ccc2C(C)(C)C1
Response line: -1

Prompt line: Subsequent entry: CC1(C)CN(C(=O)c2cc(F)cc(Cl)c2)Cc2cc(N3CCN(C4CCCC4)CC3)ccc21
Response line: -1

Prompt line: Subsequent entry: CC1(C)CCN(C(=O)c2cccc3c2OCO3)Cc2cc(N3CCC(N4CCOCC4)CC3)ccc21
Response line: -2

Prompt line: Subsequent entry: Cc1cc(-c2ccc3c(c2)CN(CCC(=O)N2CCc4ccccc4C2)CCC3(C)C)cc(C)n1
Response line: -2

Prompt line: Subsequent entry: CC1(C)CCN(C(=O)C2CCCCC2)Cc2cc(N3CCC(N4CCOCC4)CC3)ccc21
Response line: 1

Prompt line: Subsequent entry: CC1(C)CN(C(=O)OC2CCCCC2)Cc2cc(N3CCN(C4CCCC4)CC3)ccc21
Response line: 0

Prompt line: Subsequent entry: CC1(C)CCN(S(=O)(=O)c2cccc(Cl)c2)Cc2cc(N3CCC(N4CCOCC4)CC3)ccc21
Response line: 1

---

target: α1a (h) (Homo sapiens (Human)); assay: α1A adrenergic antagonist effect assay; format: cell-based; settings: α1A(h) antagonist effect, 1 μM; read-out: % inhibition of control values (1 μM)
Sequence (P35348 whole entry): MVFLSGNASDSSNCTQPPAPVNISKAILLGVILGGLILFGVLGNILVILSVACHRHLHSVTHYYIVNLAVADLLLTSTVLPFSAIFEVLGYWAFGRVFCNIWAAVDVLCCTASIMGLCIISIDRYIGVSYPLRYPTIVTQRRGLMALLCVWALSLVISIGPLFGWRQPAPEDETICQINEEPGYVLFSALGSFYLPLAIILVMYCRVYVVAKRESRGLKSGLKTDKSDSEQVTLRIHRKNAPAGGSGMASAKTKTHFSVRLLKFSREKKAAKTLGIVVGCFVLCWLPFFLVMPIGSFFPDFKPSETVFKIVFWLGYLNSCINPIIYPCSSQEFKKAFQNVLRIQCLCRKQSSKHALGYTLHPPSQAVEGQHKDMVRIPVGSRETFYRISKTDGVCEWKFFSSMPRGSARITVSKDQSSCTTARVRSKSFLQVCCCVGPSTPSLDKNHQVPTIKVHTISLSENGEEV
So basically, if inhibition at 1 µM comes in under 20% it's criterion met, and if it's 20% or more it's criterion not met.

Prompt line: Hi there! Is inhibition at 1 µM for CC(C)OC(=O)N1Cc2cc(N3CCN(C4CCCC4)CC3)ccc2C(C)(C)C1 below 20%, do you know?
Response line: criterion met

Prompt line: Subsequent entry: CC1(C)CCN(C2CCCCC2)Cc2cc(-c3ccc(C(F)(F)F)cc3)ccc21
Response line: criterion not met

Prompt line: Subsequent entry: CC1(C)CN(C(=O)c2cc(F)cc(Cl)c2)Cc2cc(N3CCN(C4CCCC4)CC3)ccc21
Response line: criterion not met

Prompt line: Subsequent entry: CC(C)OC(=O)N1CCC(C)(C)c2ccc(N3CCN(C4CCCC4)CC3)cc2C1
Response line: criterion met

Prompt line: Subsequent entry: CC1(C)CCN(S(=O)(=O)c2cccc(Cl)c2)Cc2cc(N3CCC(N4CCOCC4)CC3)ccc21
Response line: criterion met

Prompt line: Subsequent entry: Cc1cc(-c2ccc3c(c2)CN(CCC(=O)N2CCC(C)CC2)CCC3(C)C)cc(C)n1
Response line: criterion not met

Prompt line: Subsequent entry: CC1(C)CN(C(=O)OC2CCCCC2)Cc2cc(N3CCN(C4CCCC4)CC3)ccc21
Response line: criterion met

Prompt line: Subsequent entry: CC1(C)CCN(C(=O)C2CCCCC2)Cc2cc(N3CCC(N4CCOCC4)CC3)ccc21
Response line: criterion met
